Target: human ether-à-go-go-related gene (hERG) potassium channel (human, UniProt Q12809);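 also: peak tail current of the secondary pulse compared with the same well before compound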
Sequence (Q12809 whole entry, looked up): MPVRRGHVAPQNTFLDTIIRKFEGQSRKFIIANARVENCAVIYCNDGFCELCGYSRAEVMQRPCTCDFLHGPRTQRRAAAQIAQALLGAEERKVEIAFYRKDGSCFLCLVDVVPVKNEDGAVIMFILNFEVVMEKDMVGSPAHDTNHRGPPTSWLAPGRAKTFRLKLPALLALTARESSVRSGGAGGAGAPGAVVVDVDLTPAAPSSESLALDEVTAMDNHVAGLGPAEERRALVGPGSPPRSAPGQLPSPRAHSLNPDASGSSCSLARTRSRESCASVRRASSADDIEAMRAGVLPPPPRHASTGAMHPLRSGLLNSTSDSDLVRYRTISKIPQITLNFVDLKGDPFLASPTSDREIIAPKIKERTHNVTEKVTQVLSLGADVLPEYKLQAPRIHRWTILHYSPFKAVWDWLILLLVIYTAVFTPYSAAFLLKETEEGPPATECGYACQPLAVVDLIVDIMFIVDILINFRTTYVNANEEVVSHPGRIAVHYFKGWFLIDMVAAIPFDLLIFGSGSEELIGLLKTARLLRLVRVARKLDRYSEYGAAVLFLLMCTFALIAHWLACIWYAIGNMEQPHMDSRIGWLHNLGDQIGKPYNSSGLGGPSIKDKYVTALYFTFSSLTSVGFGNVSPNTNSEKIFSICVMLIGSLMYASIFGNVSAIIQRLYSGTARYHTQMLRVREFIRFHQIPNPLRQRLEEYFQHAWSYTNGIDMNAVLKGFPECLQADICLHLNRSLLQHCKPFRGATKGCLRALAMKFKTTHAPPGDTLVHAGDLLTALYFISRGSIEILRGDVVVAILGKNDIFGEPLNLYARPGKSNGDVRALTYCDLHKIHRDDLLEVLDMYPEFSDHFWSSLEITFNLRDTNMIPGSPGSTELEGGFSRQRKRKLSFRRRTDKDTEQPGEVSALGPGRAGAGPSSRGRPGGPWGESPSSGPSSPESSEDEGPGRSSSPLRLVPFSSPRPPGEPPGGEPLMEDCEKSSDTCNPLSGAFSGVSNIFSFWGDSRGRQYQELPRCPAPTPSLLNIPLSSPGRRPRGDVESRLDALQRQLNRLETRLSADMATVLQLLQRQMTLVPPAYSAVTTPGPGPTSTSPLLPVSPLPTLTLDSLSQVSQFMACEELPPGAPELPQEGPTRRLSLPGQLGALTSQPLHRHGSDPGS
Assay: primary screen, population patch clamp on CHO cells stably expressing hERG; higher = less effect of the substance
Screen size: about 310,000 compounds; about 14,000 (4.5%) showed an effect of 50% or more. The effect is printed as a negative number. This excerpt belongs to a sample that is enriched for strong results.
readout_type: hERG current change (%, negative = inhibition) at 10uM (%)
I only need the number, in %, no unit after it.

What does the data say about its hERG current change (%, negative = inhibition) at 10uM? Entry: Cc1ccc(-n2[nH]c(C)c(C=Nc3ccc(S(=O)(=O)Nc4nccs4)cc3)c2=O)c(C)c1
-35

Please give the measured hERG current change (%, negative = inhibition) at 10uM for this molecule: CCn1c(CO)nc2c1c(=O)[nH]c(=O)n2Cc1ccccc1
17.7

Reported hERG current change (%, negative = inhibition) at 10uM for CCn1cc(C(=O)O)c(=O)c2cc(Br)ccc21 : what is it?
-46.7

Would you kindly share the measured hERG current change (%, negative = inhibition) at 10uM for Cc1c(NC(=O)c2cc3nc(-c4ccc(Br)cc4)cc(C(F)(F)F)n3n2)c(=O)n(-c2ccccc2)n1C ?
-33.9

Any idea what its hERG current change (%, negative = inhibition) at 10uM is? The molecule is COc1ccnc(Oc2ccc(F)cc2)c1C(=O)N/C=N/OCc1c(Cl)cccc1Cl
-5.9
